target: cdc42 (Homo sapiens); construct: made in house; experiment: Cdc42 GTP Binding Domain Inhibition Assay; conditions: read-out: Cdc42: % inh.
Sequence (P60953 whole entry, the tested form may be a part): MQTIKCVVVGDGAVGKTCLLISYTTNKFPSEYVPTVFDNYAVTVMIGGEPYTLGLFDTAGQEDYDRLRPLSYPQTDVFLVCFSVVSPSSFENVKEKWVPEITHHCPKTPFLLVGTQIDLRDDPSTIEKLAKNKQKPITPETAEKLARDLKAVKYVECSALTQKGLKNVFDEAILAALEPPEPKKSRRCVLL
assayEndpoint: inhibition at 20 µM

smilesString	inhibition at 20 µM
Cc1c(-c2ccn(C(C)C)n2)cn2nc(-c3nccn3C)nc(Nc3nccn3C)c12	76 to 100%
Cc1c(-c2ccn(C(C)C)n2)cn2nc(-c3nccn3C)nc(Nc3ccccn3)c12	76 to 100%
COc1cc(Nc2nc(-c3nccn3C)nn3cc(-c4ccn(C)n4)c(C)c23)ncn1	76 to 100%

Could you now look at the following compound, please?
stdin: In one line, give reported inhibition at 20 µM of the entry COc1cnc(Nc2nc(-c3nccn3C)nn3cc(-c4ccn(C(C)C)n4)c(C)c23)nc1 .
stdout: 26 to 49%
